Values were extracted from patent US10604474B2.

Experiment: Angle of repose (flowability) measured with a 1050/70 type goniometer
Assay type: physicochemical
Details: slightly ground, smeared on horizontal quartz plate; smaller than 40° meets flowability requirements
The following molecules are shown together with reported Angle of repose (flowability) values.
READOUT_TYPE: Angle of repose (flowability)

MOLECULE: NCCCC(=O)O [CN101928736A, CN103509831A, CN104531795A, CN102242161A] [γ-aminobutyric acid, reference compound]
VALUE_OBSERVED: 50°
--
MOLECULE: NCCCC(=O)O [Embodiment 3, γ-aminobutyric acid]
VALUE_OBSERVED: 34 °
--
MOLECULE: NCCCC(=O)O [Present invention, γ-aminobutyric acid]
VALUE_OBSERVED: 35°

====

Test: Angle of repose (flowability) measured with a 1050/70 type goniometer
Format: physicochemical
Details: slightly ground, smeared on horizontal quartz plate; smaller than 40° meets flowability requirements

COMPOUND: NCCCC(=O)O [Embodiment 2, γ-aminobutyric acid]
Angle of repose (flowability) (°): 37

COMPOUND: NCCCC(=O)O [Embodiment 1, γ-aminobutyric acid]
Angle of repose (flowability) (°): 35

COMPOUND: NCCCC(=O)O [Embodiment 5, γ-aminobutyric acid]
Angle of repose (flowability) (°): 37

COMPOUND: NCCCC(=O)O [Embodiment 6, γ-aminobutyric acid]
Angle of repose (flowability) (°): 35

COMPOUND: NCCCC(=O)O [Embodiment 4, γ-aminobutyric acid]
Angle of repose (flowability) (°): 36

====

Test: Bulk density
Assay type: physicochemical
Rule: Bulk density under 0.7 g/mL gives class 0, otherwise class 1.

COMPOUND: NCCCC(=O)O [Embodiment 3, γ-aminobutyric acid]
ANSWER_LABEL: class 1

COMPOUND: NCCCC(=O)O [Embodiment 4, γ-aminobutyric acid]
ANSWER_LABEL: class 1

COMPOUND: NCCCC(=O)O [Embodiment 1, γ-aminobutyric acid]
ANSWER_LABEL: class 1

COMPOUND: NCCCC(=O)O [CN101928736A, CN103509831A, CN104531795A, CN102242161A] [γ-aminobutyric acid, reference compound]
ANSWER_LABEL: class 0

COMPOUND: NCCCC(=O)O [Embodiment 6, γ-aminobutyric acid]
ANSWER_LABEL: class 1

COMPOUND: NCCCC(=O)O [Present invention, γ-aminobutyric acid]
ANSWER_LABEL: class 1
